target-under-test: PD-L1 His protein / PD-1 Fc protein (Homo sapiens (Human), UniProt Q9NZQ7)
Sequence (Q9NZQ7 19-238): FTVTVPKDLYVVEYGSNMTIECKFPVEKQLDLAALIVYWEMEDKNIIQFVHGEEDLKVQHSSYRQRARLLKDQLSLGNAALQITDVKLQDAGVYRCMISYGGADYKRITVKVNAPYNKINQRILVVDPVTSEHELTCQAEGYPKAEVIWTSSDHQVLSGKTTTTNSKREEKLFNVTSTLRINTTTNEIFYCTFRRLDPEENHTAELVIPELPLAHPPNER
assay-protocol: HTRF Assay (PD-1/PD-L1 interaction)
Format: binding
measurement-parameters: PD-L1 His 6 nM, PD-1 Fc 6 nM
measured-attribute: pIC50
One number for each entry, as −log10 of the molar value.

Below are worked cases with known answers.
structure-smiles-string	pIC50
COc1cc(CNC[C@@H]2CCC(=O)N2)cc(-c2nccc(-c3cccc(-c4ccc(CNC[C@@H]5CCC(=O)N5)c(OC)n4)c3Cl)c2Cl)c1	8.29
COc1cc(-c2nccc(-c3cccc(-c4ccc(CN[C@H]5C[C@](C)(O)C5)c(OC)n4)c3Cl)c2Cl)ccc1CN1CC2(CNC(=O)C2)C1	8.81
CNCc1ccc(-c2cccc(-c3ccnc(-c4ccc5c(CNC)cn(C)c5c4)c3Cl)c2Cl)nc1OC	8.98
COc1cc(-c2nccc(-c3cccc(NC(=O)c4ccc(CNC[C@@H]5CCC(=O)N5)cn4)c3Cl)c2Cl)ccc1CNC[C@@H]1CCC(=O)N1	9.59
COc1cc(-c2nccc(-c3ccnc(-c4cc5c(c(OC)c4)CN(C[C@@H]4CCC(=O)N4)CC5)c3Cl)c2Cl)cc2c1CN(C[C@@H]1CCC(=O)N1)CC2	7.73
COc1nc(-c2ccnc(-c3cccc4c3CC[C@@H]4Oc3nc(OC)c(CNC4CCOCC4)cc3C(F)(F)F)c2Cl)ccc1CN1CC2(CNC(=O)C2)C1	9.60

Shift focus to the following entry.
Query: Any idea what pIC50 was measured for COc1nc(-c2ccnc(-c3cccc(NC(=O)c4ccc(CNCCO)cn4)c3C)c2Cl)ccc1CNC1CCN(C(C)=O)CC1 ?
Reply: 9.62
